molecular target: Nitric oxide synthase, inducible (Rattus norvegicus); assay: Inhibition of iNOS-mediated NO production in IL-1beta/IFNgamma-stimulated rat […] cells by Griess reaction
Sequence (Q06518 whole entry): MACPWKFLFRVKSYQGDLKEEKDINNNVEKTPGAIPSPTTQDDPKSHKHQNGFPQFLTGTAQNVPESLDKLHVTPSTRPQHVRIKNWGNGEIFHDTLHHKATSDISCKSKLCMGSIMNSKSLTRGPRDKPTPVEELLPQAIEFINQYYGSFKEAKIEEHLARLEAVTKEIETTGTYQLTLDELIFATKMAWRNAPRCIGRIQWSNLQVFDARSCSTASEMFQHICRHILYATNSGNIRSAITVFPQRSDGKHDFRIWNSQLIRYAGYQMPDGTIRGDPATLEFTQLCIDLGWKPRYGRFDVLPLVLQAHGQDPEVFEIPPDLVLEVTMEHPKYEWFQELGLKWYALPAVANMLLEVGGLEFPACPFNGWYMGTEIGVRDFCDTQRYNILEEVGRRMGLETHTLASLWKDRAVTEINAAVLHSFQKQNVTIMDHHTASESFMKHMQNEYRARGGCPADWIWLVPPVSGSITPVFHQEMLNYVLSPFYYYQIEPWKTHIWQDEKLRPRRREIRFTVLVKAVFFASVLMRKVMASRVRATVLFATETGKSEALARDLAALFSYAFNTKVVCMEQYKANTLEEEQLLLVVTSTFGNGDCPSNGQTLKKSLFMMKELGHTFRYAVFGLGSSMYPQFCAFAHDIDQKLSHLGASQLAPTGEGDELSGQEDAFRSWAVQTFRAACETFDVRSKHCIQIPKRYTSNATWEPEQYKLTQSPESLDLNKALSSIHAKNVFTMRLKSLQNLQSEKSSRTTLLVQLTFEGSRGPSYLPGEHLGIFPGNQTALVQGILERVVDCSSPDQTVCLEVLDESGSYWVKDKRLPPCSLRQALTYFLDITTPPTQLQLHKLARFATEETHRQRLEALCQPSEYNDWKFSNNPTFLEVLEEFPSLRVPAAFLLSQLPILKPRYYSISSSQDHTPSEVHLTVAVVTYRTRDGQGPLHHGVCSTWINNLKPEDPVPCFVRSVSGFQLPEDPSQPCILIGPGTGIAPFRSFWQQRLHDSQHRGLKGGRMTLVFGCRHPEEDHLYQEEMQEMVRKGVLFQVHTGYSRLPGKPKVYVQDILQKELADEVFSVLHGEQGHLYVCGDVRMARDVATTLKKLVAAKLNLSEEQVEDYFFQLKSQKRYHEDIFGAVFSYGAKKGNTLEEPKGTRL
Exam item: assign Met to entries whose IC50 is below 30 µM and Not met to entries at or above 30 µM. Note that a value of exactly 30 µM receives Not met.

> print(dat)
                                    compound  category
 1  S=C1NC(c2ccc(Cl)cc2)N2CCCCN12 (stereo not drawn)   Not met
 2  O=[N+]([O-])c1ccc(C2NC(=S)N3CCCCN23)cc1 (stereo not drawn)       Met
 3                                  N=C(N)NN   Not met
 4  O=[N+]([O-])c1ccccc1/C=C/C1NC(=S)N2CCCCN12 (stereo not drawn)       Met
 5  Cc1ccc(C2NC(=S)N3CCCCN23)cc1 (stereo not drawn)   Not met
 6  S=C1NC(c2ccccc2Cl)N2CCCCN12 (stereo not drawn)   Not met
 7  S=C1NC(c2cccc(Oc3ccccc3)c2)N2CCCCN12 (stereo not drawn)   Not met
 8  Oc1ccccc1C1NC(=S)N2CCCCN12 (stereo not drawn)   Not met
 9  CN(C)c1ccc(C2NC(=S)N3CCCCN23)cc1 (stereo not drawn)   Not met
10  Cc1ccccc1C1NC(=S)N2CCCCN12 (stereo not drawn)   Not met
11  O=[N+]([O-])c1cccc(C2NC(=S)N3CCCCN23)c1 (stereo not drawn)       Met
12  O=[N+]([O-])c1ccccc1C1NC(=S)N2CCCCN12 (stereo not drawn)       Met

Where do the numbers come from? From ChEMBL document CHEMBL2412959.
